Measured cytotoxicity at 10 µM by item
protocol summary: Toxicity liver stage against HepG2, at 10uM
Format: cell-based
Set-up: test concentration 10 uM, cell line HepG2-A16-CD81EGFP
stated conditions: human, HepG2-A16-CD81EGFP cells; read-out: INHIBITION
Your answer is read as %, so omit the unit and give the number.

1. O=C(c1ccco1)N1CC[C@H]2[C@H]1CC(=O)N2c1cccnc1
-95.8
2. Cc1[nH]c(C2(N)CCCCC2)nc(=O)c1C
-0.846
3. CN(Cc1ccc(Cl)cc1)S(=O)(=O)N(C)Cc1cnn(C)c1
16.5
4. O=C(CCc1ccc(Br)cc1F)NS(=O)(=O)c1ccc2c(c1)OCCO2
2.48
5. CSc1ncccc1C(=O)N1C[C@@H]2CC[C@H]1CN(CC(=O)N(C)C)C2
2.9

INPUT: Which cytotoxicity at 10 µM is listed for OC(COCc1ccc(Cl)cc1)CN1CCC(c2ccn[nH]2)CC1 (stereo unspecified) ?
OUTPUT: -7.21

INPUT: How about CCNS(=O)(=O)c1ccc2c(c1)c(=O)n(CC)c(=O)n2CC ?
OUTPUT: 10.4

INPUT: How about CS(=O)(=O)NCC1CCCN(C(=O)c2ccc(F)c(F)c2)C1 (stereo unspecified) ?
OUTPUT: -10.3
